Source: ChEMBL document CHEMBL5543098

Catalogue of Ratio IC50 values
Test system: KYSE-150 cell line
assayDetails: Phototoxic index, ratio of IC50 for dark toxicity in human KYSE-150 cell line incubated for 24 hrs to IC50 phototoxicity against human KYSE-150 cell line preincubated for 24 hrs followed by 730 nm laser light irradiation for 24 hrs
Format: functional
Just the number, please, no unit attached.

{"givenSmiles": "C[N+](C)(C)CCCOc1cc(OCCC[N+](C)(C)C)cc(-c2c3nc(cc4[nH]c(c(-c5cc(OCCC[N+](C)(C)C)cc(OCCC[N+](C)(C)C)c5)c5nc(cc6[nH]c2c2cc7ccccc7cc62)-c2cc6ccccc6cc2-5)c2cc5ccccc5cc42)-c2cc4ccccc4cc2-3)c1.[Br-].[Br-].[Br-].[Br-]", "targetUnderTest": "KYSE-150 cell line", "Ratio IC50": 27}

Then this compound:
Which value of Ratio IC50 has been reported for [Br-].[Br-].[Br-].[Br-].c1cc[n+](CCCCCOc2cc(OCCCCC[n+]3ccccc3)cc(-c3c4nc(cc5[nH]c(c(-c6cc(OCCCCC[n+]7ccccc7)cc(OCCCCC[n+]7ccccc7)c6)c6nc(cc7[nH]c3c3cc8ccccc8cc73)-c3cc7ccccc7cc3-6)c3cc6ccccc6cc53)-c3cc5ccccc5cc3-4)c2)cc1 in the records?
14.4
